Below, each entry is listed with its recorded protein stability index.
B1: TEKT4 (parent)
chain: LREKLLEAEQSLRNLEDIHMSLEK

Variants of: B1
Test: protein stability index of a GFP-peptide fusion (GPS, HEK-293T) (PSI 1-6); higher = more stable;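 also: lentivirally expressed fusions sorted by FACS into six bins by GFP to DsRed ratio, PSI derived from sequencing read proportions per bin multiplied by bin number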
Details: c terminus: a fixed tail appended
Reply briefly: the number, and no unit.

Worked set:
{"Sequence Variant": "M20W", "Meas Value": 2.55}
{"Sequence Variant": "I18S", "Meas Value": 3.84}

Field: next variant
Q) Give protein stability index for A8S
A) 3
